Attribution: patent US7615564B2

# System under test: Recombinant Rho kinase (fused protein composed of bovine Rho kinase catalytic region and glutathione S-transferase) (Bos taurus)
# Construct: fused protein composed of bovine Rho kinase catalytic region and glutathione S-transferase; glutathione S-transferase (GST); made in house; host or cells: insect cells infected with baculovirus
# Sequence (Q28021 92-354 limits assumed): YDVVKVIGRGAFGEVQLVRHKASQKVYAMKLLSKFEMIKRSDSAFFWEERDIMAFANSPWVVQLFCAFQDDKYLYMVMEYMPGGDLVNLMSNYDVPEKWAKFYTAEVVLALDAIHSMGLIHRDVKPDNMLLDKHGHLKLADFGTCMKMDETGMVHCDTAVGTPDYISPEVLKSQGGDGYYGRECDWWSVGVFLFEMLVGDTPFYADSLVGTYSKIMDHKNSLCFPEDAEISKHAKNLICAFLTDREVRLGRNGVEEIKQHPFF
# Assay notes: Rho kinase inhibitory activity (phosphorylation of S6 231-239 substrate with γ32P-ATP)
# Assay type: biochemical
# Assay context: concentration inhibiting substrate phosphorylation by 50%
For each entry below, report its IC50 value.
Provide only the numeric value, understood in nM.

Qu. What value of IC50 has been reported for the following molecule? Fc1ccc(CN2CCC(Nc3cccc4cnccc34)C2)cc1 (stereo not shown)
Ans. 93

Qu. What value of IC50 has been reported for the following molecule? c1cncc(CN2CCCC(Nc3cccc4cnccc34)C2)c1 (stereo not shown)
Ans. 1000

Qu. What value of IC50 has been reported for the following molecule? O=[N+]([O-])c1ccccc1CN1CCCC(Nc2cccc3cnccc23)C1 (stereo not shown)
Ans. 580

Qu. What value of IC50 has been reported for the following molecule? Cc1ccc(CN2CCC(Nc3cccc4cnccc34)C2)cc1 (stereo not shown)
Ans. 96
